Experiment Summary: Solubility
Type: physicochemical
Assay Setup: pH 6.5, aqueous buffer
Measured Property: solubility (µg/mL)

1) CN1CCN(c2ccc3c(c2)c(NCc2ccccc2)c(C#N)c2nc(-c4ccc(F)cc4)nn23)CC1 = 0.5

(a) COc1cccc(-c2nc3c(C#N)c(NCc4ccccc4)c4cc(N5CCOCC5)ccc4n3n2)c1
(b) CN1CCN(c2ccc3c(c2)c(NCc2ccccc2)c(C#N)c2nc(-c4ccccc4)nn23)CC1
Which item exceeds the other in solubility, a or b ? Label of pick, please.
b

----------
Measured On: UniProt:P0DMS8
Sequence (P0DMS8 1-318): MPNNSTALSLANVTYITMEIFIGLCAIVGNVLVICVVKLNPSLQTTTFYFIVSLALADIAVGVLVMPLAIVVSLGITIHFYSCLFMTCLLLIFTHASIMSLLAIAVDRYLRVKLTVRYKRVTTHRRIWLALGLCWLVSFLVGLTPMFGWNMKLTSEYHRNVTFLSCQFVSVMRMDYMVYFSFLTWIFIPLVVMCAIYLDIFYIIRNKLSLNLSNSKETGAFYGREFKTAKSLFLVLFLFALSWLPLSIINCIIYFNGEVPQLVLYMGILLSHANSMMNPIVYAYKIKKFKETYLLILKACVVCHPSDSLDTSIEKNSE
Measured Property: IC50 (nM)

(I) CN1CCN(c2ccc3c(c2)c(NCc2ccccc2)c(C#N)c2nc(-c4ccccc4)nn23)CC1 [Example 17]
(II) CN1CCN(c2ccc3c(c2)c(NCc2ccccc2)c(C#N)c2nc(-c4ccc(F)cc4)nn23)CC1 [Example 18]
Could you tell me which of these two has the smaller IC50 figure? First: I Second: II Label of pick, please.
I
